// values below are reported EC50
Subject Of Test: T1, monkey MSLN on HEK293T-monkey MSLN recombinant cells (monkey)
T1 construct: Full-length precursor as transfected; processing on the cell is not described; also called HEK293-monkey MSLN
T1 chain: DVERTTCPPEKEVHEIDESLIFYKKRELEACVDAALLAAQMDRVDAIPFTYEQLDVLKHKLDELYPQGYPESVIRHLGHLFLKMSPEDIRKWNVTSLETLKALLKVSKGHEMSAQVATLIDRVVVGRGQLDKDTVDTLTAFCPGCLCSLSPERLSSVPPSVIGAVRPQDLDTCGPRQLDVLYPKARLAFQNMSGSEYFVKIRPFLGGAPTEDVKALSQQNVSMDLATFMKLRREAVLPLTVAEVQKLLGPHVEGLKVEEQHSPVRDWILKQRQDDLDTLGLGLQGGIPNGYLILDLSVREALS
Assay Details: FACS, HEK293T-monkey MSLN cells
Express the result in nM but write the number alone.

[
  {
    "Binder": "F2.23.12-H1 (scFv, not shown: small tags and cut ends, also called S009-F2.23.12 humanized antibody VH1 + VL1) scFv: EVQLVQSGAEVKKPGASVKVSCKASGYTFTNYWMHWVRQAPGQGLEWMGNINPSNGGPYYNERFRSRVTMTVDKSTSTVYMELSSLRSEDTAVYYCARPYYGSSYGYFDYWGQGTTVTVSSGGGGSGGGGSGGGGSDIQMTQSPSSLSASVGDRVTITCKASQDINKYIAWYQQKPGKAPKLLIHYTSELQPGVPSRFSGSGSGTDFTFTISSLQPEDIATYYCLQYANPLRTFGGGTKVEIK",
    "Measure Unit": "nM",
    "EC50": 6.72
  }
]

The record that follows has no EC50 shown yet.
Quick note, EC50 for F2.39.3-H9 (scFv, not shown: small tags and cut ends, also called S009-F2.39.3 humanized antibody VH3 + VL1) scFv: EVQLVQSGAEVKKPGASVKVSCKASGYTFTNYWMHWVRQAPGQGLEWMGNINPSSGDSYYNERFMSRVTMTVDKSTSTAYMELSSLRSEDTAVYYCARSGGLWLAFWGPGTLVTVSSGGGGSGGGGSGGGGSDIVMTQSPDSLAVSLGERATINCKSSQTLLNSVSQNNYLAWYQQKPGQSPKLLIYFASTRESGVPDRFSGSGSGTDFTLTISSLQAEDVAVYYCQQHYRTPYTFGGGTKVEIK landed at 7.73

src = patent US20250250357A1
